Where do the numbers come from? From patent EP1388586A2.

# System Under Test: DRB5*0101 (DR2w2a) (Homo sapiens, UniProt P01903+Q30154)
# Construct: used as sources of human HLA class II molecules; endogenous in cells; host or cells: GM3107 (EBV-transformed homozygous B cell line)
# Experimental Details: Class II peptide-binding assay, DR2w2a (DR2w2B2);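 also: competitive binding assay: unlabeled peptide inhibiting binding of a radiolabeled probe peptide to purified DR molecules at pH 7.0, IC50 approximating Kd, lower means stronger binding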
# Condition Set: read-out: DR2w2B2 nM; Table VIII, In IC50 Format
Square brackets hold non-standard residues; d marks the D form. Peptide text beside a SMILES is read from it.
Measured Endpoint: IC50

# Compound, System Under Test, Measured Endpoint, Result
records = [
    ("CC(C)C[C@H](NC(=O)[C@@H](NC(=O)[C@@H](NC(=O)[C@H](CCC(N)=O)NC(=O)[C@H](CO)NC(=O)[C@H](CCC(N)=O)NC(=O)[C@H](Cc1ccccc1)NC(=O)[C@H](CCCCN)NC(=O)[C@H](C)NC(=O)[C@H](N)Cc1ccc(O)cc1)[C@@H](C)O)[C@@H](C)O)C(=O)N[C@@H](CCCCN)C(=O)N[C@@H](C)C(=O)N[C@@H](CCCCN)C(=O)N[C@@H](C(N)=O)[C@H](C)O [Peptide 858.02] (H-[dY]AKFQSQTTLKAK[dT]-NH2)", "DRB5*0101 (DR2w2a) (Homo sapiens, UniProt P01903+Q30154)", "IC50", "32.4 nM"),
]

###

This section presents compounds with their documented pIC50 values.
# System Under Test: DRB1*0301 (DR3w17) (Homo sapiens, UniProt P01903+P01911, A100K/A102G/A103R/A169T/F55Y/I96L/K41T/L162R/M171V/P40S/Q125H/Q178H/Q39Y/R42S/S66N/T106N/T262R/W38E/Y61H)
# Construct: used as sources of human HLA class II molecules; endogenous in cells; host or cells: MAT (EBV-transformed homozygous B cell line)
# Sequence (P01903 26-254, other chains not shown): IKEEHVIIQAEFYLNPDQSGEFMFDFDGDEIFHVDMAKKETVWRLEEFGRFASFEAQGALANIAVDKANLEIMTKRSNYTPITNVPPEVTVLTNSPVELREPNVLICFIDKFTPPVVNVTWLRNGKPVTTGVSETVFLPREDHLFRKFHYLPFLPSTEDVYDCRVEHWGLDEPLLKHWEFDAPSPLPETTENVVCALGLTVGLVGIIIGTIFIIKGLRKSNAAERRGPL
# Experimental Details: Class II peptide-binding assay, DR3 (pH 4.5);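 also: unlabeled peptide competing with a radiolabeled probe peptide for binding to affinity-purified HLA-DR3, IC50 regarded as an approximation of Kd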
# Condition Set: read-out: In IC50 Format DR3 nM; Table VIII; values in parentheses read as lower bounds
pIC50: −log10 of the molar value.

# Compound, Limit Qualifier, pIC50
rows = [
    ("CC(C)C[C@H](NC(=O)[C@@H]1CCCN1C(=O)CNC(=O)[C@@H](N)CCCCN)C(=O)N1CCC[C@H]1C(=O)N[C@H](C(=O)N[C@@H](CC(=O)O)C(=O)N[C@@H](CS)C(=O)N[C@@H](CS)C(=O)N[C@@H](Cc1c[nH]cn1)C(=O)N[C@@H](CCC(=O)O)C(=O)N[C@@H](CCC(N)=O)C(=O)N[C@@H](CS)C(=O)N[C@@H](C)C(=O)N[C@@H](C)C(=O)O)[C@@H](C)O [Peptide 39.0344]", "<", 3.95),
    ("CSCC[C@H](NC(=O)[C@H](CC(=O)O)NC(=O)[C@H](CC(C)C)NC(=O)[C@H](Cc1c[nH]cn1)NC(=O)[C@@H](NC(=O)[C@H](CCC(=O)O)NC(=O)[C@@H]1CCCN1C(=O)[C@H](CO)NC(=O)[C@H](C)NC(=O)[C@@H]1CCCN1C(=O)[C@H](CC(C)C)NC(=O)[C@@H](N)CCCNC(=N)N)[C@@H](C)O)C(=O)N[C@@H](CC(C)C)C(=O)N[C@@H](CCCNC(=N)N)C(=O)N[C@@H](Cc1c[nH]cn1)C(=O)O [Peptide 39.0338]", "<", 3.95),
    ("CC(C)[C@H](N)C(=O)N[C@H](C(=O)N[C@@H](CS)C(=O)N[C@@H](Cc1ccccc1)C(=O)NCC(=O)N1CCC[C@H]1C(=O)N[C@@H](CCC(=O)O)C(=O)N[C@@H](C)C(=O)N[C@@H](CC(=O)O)C(=O)N[C@@H](CCC(N)=O)C(=O)N[C@@H](CS)C(=O)N[C@H](C(=O)N[C@@H](C)C(=O)N[C@@H](CS)C(=O)N[C@@H](C)C(=O)O)C(C)C)[C@@H](C)O [Peptide 39.0356]", "<", 3.95),
    ("CSCC[C@H](NC(=O)CNC(=O)[C@H](CC(C)C)NC(=O)CNC(=O)[C@H](Cc1ccc(O)cc1)NC(=O)[C@@H](N)CS)C(=O)N[C@@H](CCC(=O)O)C(=O)N[C@@H](Cc1c[nH]cn1)C(=O)N[C@@H](CC(C)C)C(=O)N[C@@H](CCCNC(=N)N)C(=O)N[C@@H](CCC(=O)O)C(=O)N[C@H](C(=O)N[C@@H](CCCNC(=N)N)C(=O)N[C@@H](C)C(=O)N[C@H](C(=O)O)C(C)C)C(C)C [Peptide 39.0348]", "=", 4.44),
    ("CSCC[C@H](NC(=O)[C@H](CC(=O)O)NC(=O)[C@H](CC(=O)O)NC(=O)[C@H](CC(=O)O)NC(=O)[C@H](CCC(=O)O)NC(=O)[C@H](CC(C)C)NC(=O)[C@H](CC(C)C)NC(=O)[C@H](CO)NC(=O)[C@@H](N)CCCNC(=N)N)C(=O)NCC(=O)N[C@@H](CC(=O)O)C(=O)N[C@@H](CC(C)C)C(=O)N[C@H](C(=O)N[C@@H](CC(=O)O)C(=O)N[C@@H](C)C(=O)O)C(C)C [Peptide 39.0374]", "=", 4.43),
    ("CC[C@H](C)[C@H](NC(=O)CNC(=O)[C@H](Cc1ccccc1)NC(=O)[C@@H](NC(=O)[C@H](CC(C)C)NC(=O)[C@@H](N)CCC(N)=O)C(C)C)C(=O)N[C@@H](CCC(=O)O)C(=O)N[C@H](C(=O)N[C@H](C(=O)N[C@@H](CCC(=O)O)C(=O)N[C@H](C(=O)N[C@H](C(=O)N1CCC[C@H]1C(=O)N[C@H](C(=O)N[C@@H](CO)C(=O)O)[C@@H](C)CC)C(C)C)C(C)C)C(C)C)C(C)C [Peptide 39.0389]", "=", 4.38),
    ("CC(C)C[C@H](NC(=O)[C@@H]1CCCN1C(=O)[C@H](C)NC(=O)[C@@H](NC(=O)[C@H](CC(N)=O)NC(=O)[C@H](CO)NC(=O)[C@H](C)NC(=O)[C@@H]1CCCN1C(=O)[C@H](CC(=O)O)NC(=O)CNC(=O)[C@H](CC(=O)O)NC(=O)[C@H](Cc1ccccc1)NC(=O)[C@H](CO)NC(=O)[C@H](CCC(=O)O)NC(=O)[C@@H]1CCCN1)[C@@H](C)O)C(=O)O [Peptide 39.0350]", "<", 3.95),
    ("CC(C)C[C@H](NC(=O)[C@@H]1CCCN1C(=O)[C@@H](NC(=O)[C@@H](NC(=O)[C@@H]1CCCN1C(=O)[C@H](CC(=O)O)NC(=O)[C@H](CCC(=O)O)NC(=O)[C@H](CO)NC(=O)[C@H](Cc1ccc(O)cc1)NC(=O)[C@H](CCCNC(=N)N)NC(=O)[C@H](CCC(N)=O)NC(=O)[C@@H](N)CC(C)C)[C@@H](C)O)C(C)C)C(=O)N1CCC[C@H]1C(=O)N[C@@H](CO)C(=O)N[C@@H](CCC(=O)O)C(=O)O [Peptide 39.0379]", "=", 4.95),
    ("CC(C)C[C@H](NC(=O)[C@H](CCC(N)=O)NC(=O)[C@H](CC(=O)O)NC(=O)[C@H](Cc1c[nH]c2ccccc12)NC(=O)[C@@H]1CCCN1C(=O)[C@@H](NC(=O)[C@@H](NC(=O)[C@H](Cc1c[nH]cn1)NC(=O)[C@@H](N)C(C)C)[C@@H](C)O)C(C)C)C(=O)N[C@@H](Cc1ccccc1)C(=O)N[C@@H](CCCNC(=N)N)C(=O)N[C@@H](CC(N)=O)C(=O)N1CCC[C@H]1C(=O)N[C@@H](Cc1c[nH]cn1)C(=O)N[C@@H](CCC(N)=O)C(=O)O [Peptide 39.0353]", "=", 4.87),
    ("CC(C)C[C@H](NC(=O)[C@H](CS)NC(=O)[C@H](Cc1c[nH]cn1)NC(=O)[C@H](CCCNC(=N)N)NC(=O)[C@H](C)NC(=O)[C@H](CC(N)=O)NC(=O)[C@@H](NC(=O)[C@H](Cc1ccc(O)cc1)NC(=O)[C@H](CCC(=O)O)NC(=O)[C@H](CCCNC(=N)N)NC(=O)[C@@H]1CCCN1C(=O)[C@H](CC(C)C)NC(=O)CNC(=O)[C@H](CCC(N)=O)NC(=O)[C@@H](N)CC(C)C)C(C)C)C(=O)O [Peptide 39.0355]", "<", 3.95),
    ("CC(C)C[C@H](NC(=O)[C@@H](NC(=O)[C@H](CCC(=O)O)NC(=O)[C@H](Cc1ccccc1)NC(=O)[C@@H](NC(=O)[C@H](CCC(N)=O)NC(=O)[C@H](CC(C)C)NC(=O)[C@H](CCC(N)=O)NC(=O)[C@H](CCC(=O)O)NC(=O)[C@@H]1CCCN1C(=O)[C@H](CCC(N)=O)NC(=O)[C@H](CC(C)C)NC(=O)[C@@H]1CCCN1C(=O)[C@H](C)NC(=O)[C@@H](N)[C@@H](C)O)C(C)C)[C@@H](C)O)C(=O)O [Peptide 39.0351]", "=", 3.88),
]
